Measured MIC by item
- System: Trichomonas vaginalis
- test summary: Antitrichomonas activity against trophozoite stage of Trichomonas vaginalis clinical isolate assessed as cell viability under anaerobic condition after 48 hrs by trypan blue exclusion assay
- Assay type: functional

> print(dat)
                            compound.smiles        target.of.assay  assay.endpoint    result
1  S=C(SSC(=S)N1CCN(c2ccccn2)CC1)N1CCN(c2ccccn2)CC1  Trichomonas vaginalis             MIC  > 209 µM

Next molecule, MIC to be filled in.
For S=C(SSC(=S)N(C1CCCCC1)C1CCCCC1)N(C1CCCCC1)C1CCCCC1 the molecule record lists MIC as > 194 µM

---

- Tested on: Trichomonas vaginalis
- test summary: Antitrichomonas activity against metronidazole-resistant trophozoite stage of Trichomonas vaginalis ATCC 50143 assessed as cell viability under anaerobic condition after 48 hrs by trypan blue exclusion assay
- Assay type: functional
- test parameters: ATCC 50143, 48 h
assay endpoint: MIC

> print(dat)
                            compound.smiles  assay.endpoint    result
1  Fc1ccc(N2CCN(C(=S)SSC(=S)N3CCN(c4ccc(F)cc4)CC3)CC2)cc1             MIC  > 195 µM
2  CCCCCCCCSC(=S)N1CCN(C(=S)SSC(=S)N2CCN(C(=S)SCCCCCCCC)CC2)CC1             MIC  > 143 µM
3  CS(=O)(=O)N1CCN(C(=S)SSC(=S)N2CCN(S(C)(=O)=O)CC2)CC1             MIC  > 208 µM
4  S=C(SSC(=S)N1CCN(c2ncccn2)CC1)N1CCN(c2ncccn2)CC1             MIC  > 208 µM

Notebook: CCCCCCSC(=S)N1CCN(C(=S)SSC(=S)N2CCN(C(=S)SCCCCCC)CC2)CC1 , MIC read as > 155 µM

get_value(item= S=C(SSC(=S)N1CCN(C23CC4CC(CC(C4)C2)C3)CC1)N1CCN(C23CC4CC(CC(C4)C2)C3)CC1 , readout=MIC) returns > 169 µM

Reported MIC ( CC(C)(C)OC(=O)N1CCN(C(=S)SSC(=S)N2CCN(C(=O)OC(C)(C)C)CC2)CC1 ) = > 183 µM

The compound listed as S=C(SCCN1CCCC1)N1CCN(C(=S)SSC(=S)N2CCN(C(=S)SCCN3CCCC3)CC2)CC1 shows MIC equal to > 149 µM

---

- Tested on: Trichomonas vaginalis
- test summary: Antitrichomonas activity against trophozoite stage of Trichomonas vaginalis clinical isolate assessed as cell viability under anaerobic condition after 48 hrs by trypan blue exclusion assay
- Type: functional
assay endpoint: MIC

> print(dat)
                            compound.smiles  assay.endpoint    result
1  Cc1ccc(S(=O)(=O)N2CCN(C(=S)SSC(=S)N3CCN(S(=O)(=O)c4ccc(C)cc4)CC3)CC2)cc1             MIC  > 153 µM

Notebook: CCCCCCCSC(=S)N1CCN(C(=S)SSC(=S)N2CCN(C(=S)SCCCCCCC)CC2)CC1 , MIC read as > 149 µM

Lab book: MIC of CC(C)(C)OC(=O)N1CCN(C(=S)SSC(=S)N2CCN(C(=O)OC(C)(C)C)CC2)CC1 noted as > 183 µM

Given item CCCCCCCCCCSC(=S)N1CCN(C(=S)SSC(=S)N2CCN(C(=S)SCCCCCCCCCC)CC2)CC1 , the value recorded as its MIC is > 132 µM

The molecule listed as CC(C)COC(=O)N1CCN(C(=S)SSC(=S)N2CCN(C(=O)OCC(C)C)CC2)CC1 shows MIC equal to > 191 µM

Sure, the documented MIC for S=C(SCCN1CCOCC1)N1CCN(C(=S)SSC(=S)N2CCN(C(=S)SCCN3CCOCC3)CC2)CC1 is > 142 µM

Reference source: ChEMBL document CHEMBL3792366
